System: MDA-MB-231
experimentNotes: WST-1 cytotoxicity, MDA-MB-231
Assay type: cell-based, human
particulars: MDA-MB-231, 48 h
Measured IC50 by item
Value expressed in µM; do not type the unit.

1) NS(=O)(=O)c1ccc(CCNCc2cc(Cl)ccc2O)cc1 [Compound B-1] : 595
2) NS(=O)(=O)c1ccc(CCN=Cc2cc(Cl)ccc2O)cc1 [Compound A-1] : 65.9

Task: Returns the measured IC50 for the input compound. Input: NS(=O)(=O)c1ccc(CCN=Cc2ccccc2O)cc1 [Compound A-3]
Result: 80.5

Task: Returns the measured IC50 for the input compound. Input: NS(=O)(=O)c1ccc(CCNCc2cc(Cl)cc(Cl)c2O)cc1 [Compound B-2]
Result: 43.3

Task: Returns the measured IC50 for the input compound. Input: NS(=O)(=O)c1ccc(CCN=Cc2cc(Cl)cc(Cl)c2O)cc1 [Compound A-2]
Result: 145

Task: Returns the measured IC50 for the input compound. Input: NS(=O)(=O)c1ccc(CCNCc2ccccc2O)cc1 [Compound B-3]
Result: 234

Task: Returns the measured IC50 for the input compound. Input: N.N.[Cl][Pt][Cl] [Cisplatin, reference compound]
Result: 10.2
